conditions: in acetone, 283.15 K
Quantity: solubility (mole fraction)
Answers are plain numbers.

compound `Cn1cnc([N+](=O)[O-])c1Cl` , solubility (mole fraction) observed: 0.0181

----------
conditions: in 2-butanone, 298.15 K
Quantity: solubility (mole fraction)
Numbers only.

molecule `Cn1cnc([N+](=O)[O-])c1Cl` , solubility (mole fraction) observed: 0.0259

----------
conditions: in 1,4-dioxane, 308.15 K
Quantity: solubility (mole fraction)

compound `Cn1cnc([N+](=O)[O-])c1Cl` , solubility (mole fraction) observed: 0.0173

----------
details: in methanol, 290.65 K
Quantity: solubility (mole fraction)

compound `Cn1cnc([N+](=O)[O-])c1Cl` , solubility (mole fraction) observed: 0.00385

----------
conditions: in ethanol, 288.15 K
Quantity: solubility (mole fraction)
Give bare numbers.

molecule `Cn1cnc([N+](=O)[O-])c1Cl` , solubility (mole fraction) observed: 0.00259

----------
conditions: in ethanol, 300.65 K
Quantity: solubility (mole fraction)
Answers are plain numbers.

compound `Cn1cnc([N+](=O)[O-])c1Cl` , solubility (mole fraction) observed: 0.00417

----------
conditions: in 2-butanone, 288.15 K
Quantity: solubility (mole fraction)
Numbers only.

molecule `Cn1cnc([N+](=O)[O-])c1Cl` , solubility (mole fraction) observed: 0.0176

----------
settings: in 2-butanone, 315.65 K
Quantity: solubility (mole fraction)
Answers are plain numbers.

compound `Cn1cnc([N+](=O)[O-])c1Cl` , solubility (mole fraction) observed: 0.0474

----------
settings: in 1,4-dioxane, 283.15 K
Quantity: solubility (mole fraction)
One number for each entry.

molecule `Cn1cnc([N+](=O)[O-])c1Cl` , solubility (mole fraction) observed: 0.00714

----------
details: in acetone, 288.15 K
Quantity: solubility (mole fraction)
Answers are plain numbers.

molecule `Cn1cnc([N+](=O)[O-])c1Cl` , solubility (mole fraction) observed: 0.0222

----------
settings: in isopropanol, 318.15 K
Quantity: solubility (mole fraction)

molecule `Cn1cnc([N+](=O)[O-])c1Cl` , solubility (mole fraction) observed: 0.00593

----------
settings: in NMP, 295.65 K
Quantity: solubility (mole fraction)

compound `Cn1cnc([N+](=O)[O-])c1Cl` , solubility (mole fraction) observed: 0.188

----------
conditions: in n-propanol, 318.15 K
Quantity: solubility (mole fraction)
Answers are plain numbers.

molecule `Cn1cnc([N+](=O)[O-])c1Cl` , solubility (mole fraction) observed: 0.0066

----------
conditions: in acetone, 290.65 K
Quantity: solubility (mole fraction)
Give bare numbers.

molecule `Cn1cnc([N+](=O)[O-])c1Cl` , solubility (mole fraction) observed: 0.0248

----------
settings: in n-propanol, 293.15 K
Quantity: solubility (mole fraction)
Answers are plain numbers.

compound `Cn1cnc([N+](=O)[O-])c1Cl` , solubility (mole fraction) observed: 0.00232

----------
details: in acetone, 308.15 K
Quantity: solubility (mole fraction)
Numbers only.

molecule `Cn1cnc([N+](=O)[O-])c1Cl` , solubility (mole fraction) observed: 0.0465

----------
settings: in ethanol, 283.15 K
Quantity: solubility (mole fraction)
Answers are plain numbers.

molecule `Cn1cnc([N+](=O)[O-])c1Cl` , solubility (mole fraction) observed: 0.00218

----------
details: in n-propanol, 283.15 K
Quantity: solubility (mole fraction)
Numbers only.

compound `Cn1cnc([N+](=O)[O-])c1Cl` , solubility (mole fraction) observed: 0.00152

Cited source for all entries: BigSolDB 2.1
